molecular target: wild-type EGFR (Homo sapiens); experiment: EGFR kinase assay (ELISA); settings: 30000 nM; duplicate wells, calculated from A450; 30 µM
experimental.readout: Inhibition

## Input Param readout = Inhibition; param system = wild-type EGFR (Homo sapiens); param query = COCCOc1cc2ncnc(Nc3cccc(-c4cn(-c5ccccc5Br)nn4)c3)c2cc1OCCOC ; response: value
## Output 89.9471

## Input Param readout = Inhibition; param system = wild-type EGFR (Homo sapiens); param query = COCCOc1cc2ncnc(Nc3cccc(-c4cn(-c5ccc(F)cc5)nn4)c3)c2cc1OCCOC ; response: value
## Output 71.3559

## Input Param readout = Inhibition; param system = wild-type EGFR (Homo sapiens); param query = COCCOc1cc2ncnc(Nc3cccc(-c4cn(-c5ccccc5Cl)nn4)c3)c2cc1OCCOC ; response: value
## Output 89.8246

## Input Param readout = Inhibition; param system = wild-type EGFR (Homo sapiens); param query = COCCOc1cc2ncnc(Nc3cccc(-c4cn(-c5ccccc5F)nn4)c3)c2cc1OCCOC ; response: value
## Output 93.4169

----------
Kindly supply the reported inhibition at 30 µM values for the records listed here.
target: wild-type EGFR (Homo sapiens, UniProt P00533); assay: EGFR kinase assay (ELISA); details: concentration 30000 nM; one value per replicate column
Sequence (P00533 25-1210): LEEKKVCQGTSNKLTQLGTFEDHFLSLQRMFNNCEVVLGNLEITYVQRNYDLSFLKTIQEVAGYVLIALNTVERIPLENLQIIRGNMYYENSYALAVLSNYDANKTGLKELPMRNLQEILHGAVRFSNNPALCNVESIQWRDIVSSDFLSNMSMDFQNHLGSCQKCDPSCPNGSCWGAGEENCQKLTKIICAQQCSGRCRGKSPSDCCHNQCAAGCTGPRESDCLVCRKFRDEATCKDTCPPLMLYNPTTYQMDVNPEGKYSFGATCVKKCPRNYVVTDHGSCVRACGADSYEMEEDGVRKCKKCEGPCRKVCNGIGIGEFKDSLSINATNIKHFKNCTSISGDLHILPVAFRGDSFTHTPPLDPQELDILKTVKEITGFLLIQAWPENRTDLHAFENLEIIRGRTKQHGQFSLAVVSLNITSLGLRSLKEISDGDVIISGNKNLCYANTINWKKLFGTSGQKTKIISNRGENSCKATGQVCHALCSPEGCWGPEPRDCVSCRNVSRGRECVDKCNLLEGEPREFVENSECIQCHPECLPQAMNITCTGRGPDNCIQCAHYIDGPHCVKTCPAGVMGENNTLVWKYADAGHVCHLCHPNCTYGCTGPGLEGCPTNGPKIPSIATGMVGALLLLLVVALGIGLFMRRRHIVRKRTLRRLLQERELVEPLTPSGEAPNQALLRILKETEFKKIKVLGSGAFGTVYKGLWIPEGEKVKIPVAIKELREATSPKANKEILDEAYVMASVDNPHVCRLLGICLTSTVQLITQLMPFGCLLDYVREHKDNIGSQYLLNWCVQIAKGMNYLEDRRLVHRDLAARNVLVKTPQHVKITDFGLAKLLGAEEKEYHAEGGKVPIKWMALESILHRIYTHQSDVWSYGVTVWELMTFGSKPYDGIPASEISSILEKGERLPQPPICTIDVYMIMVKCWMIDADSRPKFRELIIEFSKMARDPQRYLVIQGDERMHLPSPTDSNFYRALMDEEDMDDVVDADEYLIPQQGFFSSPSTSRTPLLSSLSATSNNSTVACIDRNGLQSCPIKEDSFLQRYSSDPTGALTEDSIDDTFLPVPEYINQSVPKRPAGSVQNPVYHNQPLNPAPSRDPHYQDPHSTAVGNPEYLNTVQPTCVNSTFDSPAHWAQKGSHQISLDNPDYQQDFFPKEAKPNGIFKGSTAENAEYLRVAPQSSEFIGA
Number in %, nothing else.

## Input I would be grateful if you could share the reported inhibition at 30 µM for COCCOc1cc2ncnc(Nc3cccc(-c4cn(Cc5cc(Br)cc(Br)c5)nn4)c3)c2cc1OCCOC .
## Output 70.2

## Input I would be grateful if you could share the reported inhibition at 30 µM for COCCOc1cc2ncnc(Nc3cccc(-c4cn(Cc5ccccc5Br)nn4)c3)c2cc1OCCOC .
## Output 44.9

## Input I would be grateful if you could share the reported inhibition at 30 µM for COCCOc1cc2ncnc(Nc3cccc(-c4cn(Cc5ccccc5)nn4)c3)c2cc1OCCOC [e1] .
## Output 73.9

## Input I would be grateful if you could share the reported inhibition at 30 µM for COCCOc1cc2ncnc(Nc3cccc(-c4cn(CCc5ccccc5)nn4)c3)c2cc1OCCOC .
## Output 88.6

## Input I would be grateful if you could share the reported inhibition at 30 µM for COCCOc1cc2ncnc(Nc3cccc(-c4cn(-c5ccc(OC)c(OC)c5)nn4)c3)c2cc1OCCOC .
## Output 52.7

## Input I would be grateful if you could share the reported inhibition at 30 µM for CCOc1cccc(-n2cc(-c3cccc(Nc4ncnc5cc(OCCOC)c(OCCOC)cc45)c3)nn2)c1 .
## Output 74.1

## Input I would be grateful if you could share the reported inhibition at 30 µM for COCCOc1cc2ncnc(Nc3cccc(-c4cn(Cc5ccccc5I)nn4)c3)c2cc1OCCOC [e2] .
## Output 97.5

## Input I would be grateful if you could share the reported inhibition at 30 µM for COCCOc1cc2ncnc(Nc3cccc(-c4cn(-c5ccccc5C(F)(F)F)nn4)c3)c2cc1OCCOC .
## Output 60.1

----------
Kindly supply the reported inhibition at 0.0003 µM values for the records listed here.
target: UniProt P00533; assay: EGFR kinase assay (ELISA); details: concentration 0.3 nM; one value per replicate column
Number in %, nothing else.

## Input I would be grateful if you could share the reported inhibition at 0.0003 µM for COCCOc1cc2ncnc(Nc3cccc(-c4cn(-c5ccc(Br)cc5)nn4)c3)c2cc1OCCOC .
## Output 11.4

## Input I would be grateful if you could share the reported inhibition at 0.0003 µM for CCOc1cccc(-n2cc(-c3cccc(Nc4ncnc5cc(OCCOC)c(OCCOC)cc45)c3)nn2)c1 .
## Output 5.16

## Input I would be grateful if you could share the reported inhibition at 0.0003 µM for COCCOc1cc2ncnc(Nc3cccc(-c4cn(CCc5ccccc5)nn4)c3)c2cc1OCCOC .
## Output 21.7

## Input I would be grateful if you could share the reported inhibition at 0.0003 µM for COCCOc1cc2ncnc(Nc3cccc(-c4cn(-c5ccccc5OC)nn4)c3)c2cc1OCCOC .
## Output 5.78

## Input I would be grateful if you could share the reported inhibition at 0.0003 µM for COCCOc1cc2ncnc(Nc3cccc(-c4cn(Cc5ccccc5I)nn4)c3)c2cc1OCCOC [e2] .
## Output 10.8

## Input I would be grateful if you could share the reported inhibition at 0.0003 µM for COCCOc1cc2ncnc(Nc3cccc(-c4cn(-c5ccc(C)cc5O)nn4)c3)c2cc1OCCOC .
## Output 9.63

## Input I would be grateful if you could share the reported inhibition at 0.0003 µM for COCCOc1cc2ncnc(Nc3cccc(-c4cn(Cc5cc(Br)cc(Br)c5)nn4)c3)c2cc1OCCOC .
## Output 8.65

## Input I would be grateful if you could share the reported inhibition at 0.0003 µM for COCCOc1cc2ncnc(Nc3cccc(-c4cn(Cc5ccccc5)nn4)c3)c2cc1OCCOC [e1] .
## Output 14.9
